Answer each item with its documented IC50.
Biological target: V106A mutant RT (HIV-1 RT) (Human immunodeficiency virus type 1 group M subtype B, UniProt P03366, V705A)
Construct: mutations that occur in the reverse transcriptase segment of the pol gene
Assay: biochemical
Settings: IC50 V106A (nM)
Source text: Based upon testing of these compounds, as described below, it is known that they inhibit the RNA-dependent DNA polymerase activity of HIV-1 RT. […] Utilising the Reverse Transcriptase (RT) Assay described below, compounds can be tested for their ability to inhibit the RNA-dependent DNA polymerase activity of HIV-1 RT. Certain specific compounds described in the Examples which appear below, were so tested. The results of this testing appear in Table 4 as IC50 (nM) and Table 5 as EC50 (nM). […]

// each listed compound needs a value for IC50
1. CCN1c2ncc(CCOc3cccc4c(S(=O)(=O)NCC(=O)O)cccc34)cc2C(=O)N(C)c2cccnc21 [Entry 2008]
2. CCN1c2ncc(CCOc3ccc4cc(CC(=O)NN)ccc4c3)cc2C(=O)N(C)c2cccnc21 [Entry 3005]
3. CCN1c2ncc(CCOc3ccc(C(C)CC(=O)O)c4ccccc34)cc2C(=O)N(C)c2cccnc21 (stereo not drawn) [Entry 1051]

1. 100 to 1000 nM
2. < 100 nM
3. > 1000 nM

* * *

Answer each item with its documented IC50.
molecular target: K103N/Y181C double mutant RT (HIV-1 RT) (Human immunodeficiency virus type 1 group M subtype B, UniProt P03366, K702N/Y780C); construct: mutations that occur in the reverse transcriptase segment of the pol gene; experiment: biochemical

• CCN1c2ncc(CCOc3ccc4cc(C(=O)O)ccc4c3)cc2C(=O)N(C)c2cccnc21 = 100 to 1000 nM

// each listed molecule needs a value for IC50
1. CCN1c2ncc(CCOc3ccc(C(=O)O)c4c3CCC4)cc2C(=O)N(C)c2ccc(Cl)nc21
2. CCN1c2ncc(CCOc3ccc(CC(=O)O)c4ccccc34)cc2C(=O)N(C)c2ccc(Cl)nc21

["< 100 nM", "100 to 1000 nM"]

// each listed molecule needs a value for IC50
1. CCN1c2ncc(CCOc3ccc(CCC(=O)O)c4ccccc34)cc2C(=O)N(C)c2ccc(C)nc21
2. CCN1c2ncc(CCOc3ccc(C4CC4C(=O)O)c4ccccc34)cc2C(=O)N(C)c2ccc(F)nc21 (stereo not shown)
3. CCN1c2ncc(CCOc3ccc(C(=O)O)c4c3CCN(C(=O)OC)C4)cc2C(=O)N(C)c2cccnc21
4. CCN1c2ncc(CCOc3ccc(C(=O)O)c4ccccc34)cc2C(=O)N(C)c2ccc(Cl)nc21

["100 to 1000 nM", "100 to 1000 nM", "100 to 1000 nM", "< 100 nM"]

* * *

biological target: K103N/Y181C double mutant RT (HIV-1 RT) (Human immunodeficiency virus type 1 group M subtype B, UniProt P03366, K702N/Y780C); construct: mutations that occur in the reverse transcriptase segment of the pol gene; assay: biochemical
pIC50: −log10 of the molar value.
attributeMeasured: pIC50

- CCN1c2ncc(CCOc3ccc(C(=O)O)c4c3CCN(C(=O)N(C)C)C4)cc2C(=O)N(C)c2cccnc21: > 7.00
- CCN1c2ncc(CCOc3ccc(C(=O)O)c4c3CCCC4)cc2C(=O)N(C)c2cccnc21: 6.00 to 7.00
- CCN1c2ncc(CCOc3ccc(CC(=O)O)c4c3CCCC4)cc2C(=O)N(C)c2ccc(F)nc21: 6.00 to 7.00
- CCN1c2ncc(CCOc3ccc(/C=C(\C)C(=O)O)c4ccccc34)cc2C(=O)N(C)c2ccc(F)nc21: 6.00 to 7.00
- CCN1c2ncc(CCOc3ccc(CC(=O)O)c4ccccc34)cc2C(=O)Nc2c(C)cc(F)nc21: 6.00 to 7.00
- CCN1c2ncc(CCOc3ccc(CC(C)C(=O)O)c4ccccc34)cc2C(=O)N(C)c2ccc(C)nc21 (stereo not shown): 6.00 to 7.00
- CCN1c2ncc(CCOc3ccc(CCC(=O)O)c4ccccc34)cc2C(=O)N(C)c2cccnc21: 6.00 to 7.00
- C=C(CC(=O)O)c1ccc(OCCc2cnc3c(c2)C(=O)N(C)c2cccnc2N3CC)c2ccccc12: 6.00 to 7.00
- CCN1c2ncc(CCOc3ccc(CC(=O)O)c4ccccc34)cc2C(=O)Nc2c(C)ccnc21: < 6.00
- CCN1c2ncc(CCOc3cccc4c3CCCN4CC(=O)O)cc2C(=O)N(C)c2cccnc21: < 6.00

// each listed compound needs a value for pIC50
1. CCN1c2ncc(CCOc3ccc(/C=C/C(=O)O)c4ccccc34)cc2C(=O)Nc2c(C)cc(Cl)nc21
2. CCN1c2ncc(CCOc3ccc(C(=O)O)c4ccccc34)cc2C(=O)Nc2c(C)ccnc21
3. CCN1c2ncc(CCOc3ccc(/C=C(\C)C(=O)O)c4ccccc34)cc2C(=O)Nc2c(C)cc(Cl)nc21
4. CCN1c2ncc(CCOc3ccc(C(=O)O)c4c3CCCC4)cc2C(=O)N(C)c2ccc(OC)nc21

["6.00 to 7.00", "6.00 to 7.00", "6.00 to 7.00", "6.00 to 7.00"]

* * *

target: Y188L mutant RT (HIV-1 RT) (Human immunodeficiency virus type 1 group M subtype B, UniProt P03366, Y787L); construct: mutations that occur in the reverse transcriptase segment of the pol gene; experiment: biochemical; settings: IC50 Y188L (nM)
attributeMeasured: IC50

Examples with their reported IC50 follow.
* CCN1c2ncc(CCOc3ccc(/C=C/C(=O)O)c4ccccc34)cc2C(=O)Nc2c(C)ccnc21 [Entry 1031] | > 1000 nM
* CCN1c2ncc(CCOc3ccc(CCC(=O)O)c4c3CCCC4)cc2C(=O)N(C)c2ccc(Cl)nc21 [Entry 5010] | 100 to 1000 nM

// each listed molecule needs a value for IC50
1. CCN1c2ncc(CCOc3ccc(C(=O)O)c4c3CCN(C(=O)OC(C)(C)C)C4)cc2C(=O)N(C)c2cccnc21 [Entry 7003]
2. CCN1c2ncc(CCOc3ccc(CC(=O)O)c4ccccc34)cc2C(=O)N(C)c2ccc(C)nc21 [Entry 1011]
3. CCN1c2ncc(CCOc3ccc(/C=C/C(=O)O)c4ccccc34)cc2C(=O)N(C)c2ccc(C)nc21 [Entry 1033]

1: 100 to 1000 nM; 2: > 1000 nM; 3: 100 to 1000 nM

// each listed molecule needs a value for IC50
1. CCNC(=O)N1CCc2c(OCCc3cnc4c(c3)C(=O)N(C)c3cccnc3N4CC)ccc(C(=O)O)c2C1 [Entry 7006]
2. CCN1c2ncc(CCOc3ccc(C(=O)O)c4c3CCC4)cc2C(=O)N(C)c2ccc(Cl)nc21 [Entry 4002]
3. CCN1c2ncc(CCOc3cccc4c(S(N)(=O)=O)cccc34)cc2C(=O)N(C)c2cccnc21 [Entry 2004]
4. CCN1c2ncc(CCOc3ccc(CC(=O)O)c4c3CCCC4)cc2C(=O)N(C)c2ccc(Cl)nc21 [Entry 5007]
5. CCN1c2ncc(CCOc3ccc(C(=O)O)c4ccccc34)cc2C(=O)N(C)c2ccc(C)nc21 [Entry 1003]

1. > 1000 nM
2. 100 to 1000 nM
3. 100 to 1000 nM
4. 100 to 1000 nM
5. > 1000 nM

* * *

Answer each item with its documented pIC50.
Target: K103N/Y181C double mutant RT (HIV-1 RT) (Human immunodeficiency virus type 1 group M subtype B, UniProt P03366, K702N/Y780C)
Construct: mutations that occur in the reverse transcriptase segment of the pol gene
Experiment: biochemical
Text: Based upon testing of these compounds, as described below, it is known that they inhibit the RNA-dependent DNA polymerase activity of HIV-1 RT. […] Utilising the Reverse Transcriptase (RT) Assay described below, compounds can be tested for their ability to inhibit the RNA-dependent DNA polymerase activity of HIV-1 RT. Certain specific compounds described in the Examples which appear below, were so tested. The results of this testing appear in Table 4 as IC50 (nM) and Table 5 as EC50 (nM). […]
pIC50: −log10 of the molar value.

Examples with their reported pIC50 follow.
- CCN1c2ncc(CCOc3ccc(CC(C)C(=O)O)c4ccccc34)cc2C(=O)N(C)c2ccc(Cl)nc21 (stereo not drawn) [Entry 1044]: 6.00 to 7.00
- CCN1c2ncc(CCOc3ccc(/C=C(\C)C(=O)O)c4ccccc34)cc2C(=O)N(C)c2cccnc21 [Entry 1035]: 6.00 to 7.00

Turning now to a further molecule:
Quick one: give measured pIC50 for CCN1c2ncc(CCOc3ccc(CCC(=O)O)c4ccccc34)cc2C(=O)N(C)c2ccc(Cl)nc21 [Entry 1022]
6.00 to 7.00

* * *

molecular target: V106A mutant RT (HIV-1 RT) (Human immunodeficiency virus type 1 group M subtype B, UniProt P03366, V705A); construct: mutations that occur in the reverse transcriptase segment of the pol gene; assay: biochemical; settings: IC50 V106A (nM)
attributeMeasured: IC50

Examples with their reported IC50 follow.
- CCN1c2ncc(CCOc3ccc(NS(=O)(=O)C(F)(F)F)c4ccccc34)cc2C(=O)N(C)c2ccc(F)nc21: > 1000 nM
- CCN1c2ncc(CCOc3ccc(C(=O)O)c4c3CCN(C(=O)OC(C)(C)C)C4)cc2C(=O)N(C)c2cccnc21: > 1000 nM
- CCN1c2ncc(CCOc3ccc(/C=C(\C)C(=O)O)c4ccccc34)cc2C(=O)N(C)c2ccc(F)nc21: > 1000 nM
- CCN1c2ncc(CCOc3ccc(CCC(=O)O)c4ccccc34)cc2C(=O)Nc2c(C)cc(F)nc21: 100 to 1000 nM
- CCN1c2ncc(CCOc3ccc(/C=C/C(=O)O)c4ccccc34)cc2C(=O)N(C)c2ccc(F)nc21: 100 to 1000 nM
- CCN1c2ncc(CCOc3ccc(/C=C/C(=O)O)c4ccccc34)cc2C(=O)Nc2c(C)cc(Cl)nc21 [Entry 2018]: 100 to 1000 nM
- CCN1c2ncc(CCOc3ccc(CC(=O)O)c4c3CCCC4)cc2C(=O)N(C)c2ccc(F)nc21: > 1000 nM
- CCN1c2ncc(CCOc3ccc(/C=C(\C)C(=O)O)c4ccccc34)cc2C(=O)N(C)c2cccnc21: > 1000 nM

// each listed compound needs a value for IC50
1. CCN1c2ncc(CCOc3ccc(/C=C/C(=O)O)c4ccccc34)cc2C(=O)Nc2c(C)cc(F)nc21 [Entry 2015]
2. CCN1c2ncc(CCOc3ccc4cc(C(=O)NC(C)(C)C(=O)O)ccc4c3)cc2C(=O)N(C)c2cccnc21
3. CCN1c2ncc(CCOc3ccc(CC(=O)O)c4c3CCCC4)cc2C(=O)N(C)c2cccnc21

1. 100 to 1000 nM
2. 100 to 1000 nM
3. > 1000 nM

Cited source for all entries: patent US6673791B2
